# reported TGI; entries follow
test system: HS 578T breast; assay: NCI tumour cell line growth inhibition, 48 h

[[record]]
molecule = "COc1cc(/C=C/[N+](=O)[O-])cc(OC)c1"
study_system = "HS 578T breast"
result = "23.3 µM"


Could you now consider this next molecule?
Input: Record request: TGI value, item S=C1NC(c2ccccc2)NC(c2ccccc2)S1 (stereo not drawn)
Output: > 100 µM

---

system: MDA-MB-231 breast; assay: NCI tumour cell line growth inhibition, 48 h
Measured Property: GI50

Recorded results for 2 compounds are shown here.
[[record]]
compound = "O=C(COc1ccc(Cl)cc1Cl)NNc1ccc([N+](=O)[O-])cc1"
study_system = "MDA-MB-231 breast"
result = "30.8 µM"

[[record]]
compound = "Cc1ccc2c(c1)n([O-])c(C(F)(F)F)c(C(=O)c1ccco1)[n+]2=O"
study_system = "MDA-MB-231 breast"
result = "0.929 µM"


Input: Record request: GI50 value, item C=C1C(=O)O[C@H]2[C@H]1CC/C(COC(=O)NCCc1ccc(Br)cc1)=C\CC[C@@]1(C)O[C@@H]21
Output: 1.42 µM

Input: Please do the same for Cn1cc(-c2nc(-c3c[nH]c4ccccc34)cs2)c2cccnc21 as well.
Output: 1.29 µM

Input: Please do the same for Clc1ccc(Nc2nnc(COc3ccccc3)c3ccccc23)cc1 as well.
Output: 1.28 µM

Input: Please do the same for c1ccc2c(c1)CCCc1nnc3nc4ccccc4n3c1-2 as well.
Output: 4.98 µM

Input: Please do the same for Cc1cc(S(=O)(=O)Nc2nc3ccccc3s2)c(SCc2ccccc2)cc1Cl as well.
Output: 16.9 µM

Input: Please do the same for CN1CCN(CCCn2c3c(sc4ncccc43)c(=O)n3nnc(-c4ccccc4)c23)CC1 as well.
Output: 1.59 µM

Input: Please do the same for C#Cc1cccc(NC(=O)C2CCCCN2C(=O)CCl)c1 (centres undefined) as well.
Output: 13.1 µM
